molecular target: cAMP-dependent protein kinase catalytic subunit PRKX (Homo sapiens) (UniProt P51817); conditions: at 10 µM
Sequence (P51817 whole entry): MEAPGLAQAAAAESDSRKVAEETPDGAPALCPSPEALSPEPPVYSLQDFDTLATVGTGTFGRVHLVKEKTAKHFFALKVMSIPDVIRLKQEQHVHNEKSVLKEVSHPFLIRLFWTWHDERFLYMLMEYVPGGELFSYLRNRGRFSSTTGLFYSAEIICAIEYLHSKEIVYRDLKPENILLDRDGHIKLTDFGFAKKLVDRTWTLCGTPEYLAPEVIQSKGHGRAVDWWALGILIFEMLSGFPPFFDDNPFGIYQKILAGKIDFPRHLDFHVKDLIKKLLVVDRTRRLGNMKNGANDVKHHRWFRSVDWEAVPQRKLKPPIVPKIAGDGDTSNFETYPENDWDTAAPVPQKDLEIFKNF
Label criterion met when residual activity is at or above 40%; anything below gets criterion not met.

**Q:** In plain terms: is recorded residual activity at least 40% for CN(C)CCCn1cc(C2=C(c3c[nH]c4ccccc34)C(=O)NC2=O)c2ccccc21 ?
**A:** criterion not met

**Q:** In plain terms: is recorded residual activity at least 40% for COc1ccc(OC)c2c(=S)c3ccccc3[nH]c12 ?
**A:** criterion met

**Q:** In plain terms: is recorded residual activity at least 40% for Nc1nc(Nc2ccc(S(N)(=O)=O)cc2)nn1C(=S)Nc1c(F)cccc1F ?
**A:** criterion not met

**Q:** In plain terms: is recorded residual activity at least 40% for CO[C@H]1C[C@@H]2CC[C@@H](C)[C@@](O)(O2)C(=O)C(=O)N2CCCC[C@H]2C(=O)O[C@H]([C@H](C)C[C@@H]2CC[C@@H](O)[C@H](OC)C2)CC(=O)[C@H](C)/C=C(\C)[C@@H](O)[C@@H](OC)C(=O)[C@H](C)C[C@H](C)/C=C/C=C/C=C/1C ?
**A:** criterion met

**Q:** In plain terms: is recorded residual activity at least 40% for Cc1ccc(S(=O)(=O)/C=C/C#N)cc1 ?
**A:** criterion met

**Q:** In plain terms: is recorded residual activity at least 40% for c1ccc2c(-c3ccncc3)c[nH]c2c1 ?
**A:** criterion not met

**Q:** In plain terms: is recorded residual activity at least 40% for c1ccc(-c2n[nH]c3c2oc2ccccc23)cc1 ?
**A:** criterion met

**Q:** In plain terms: is recorded residual activity at least 40% for O=Nc1c(-c2c(O)[nH]c3ccccc23)[nH]c2ccccc12 ?
**A:** criterion not met
